Consider the following compounds; for each one, report its Kdiss.
Target Or Test System: Bacterial 70S ribosome (Bacteria) (UniProt P0A7V0+P60723+P0AG67+P0A7R5+P0A7R9+P0A7S3+P0A7S9+P0AG59+P0ADZ4+P0A7T3+P0AG63+P0A7T7+P0A7U3+P0A7U7+P68679+P0A7V3+P0A7V8+P0A7W1+P02358+P02359+P0A7W7+P0A7X3+P0A7J3+P0A7J7+P0AA10+P0ADY3+P02413+P0ADY7+P0AG44+P0C018+P0A7K6+P0A7L0+P0A7L3+P0AG48+P61175+P0ADZ0+P60624+P68919+P0A7L8+P0A7M2+P0A7M6+P60422+P0AG51+P0A7N1+P0A7M9+P0A7N4+P0A7N9+P0A7P5+P0A7Q1+Q2EEQ2+P0A7Q6+P60438+P62399+P0AG55+P0A7K2)
Test Method Notes: Binding affinity to Staphylococcus aureus ATCC 43300 50S ribosome assessed as dissociation rate constant by SPR analysis
Type: subcellular

I am curious: what Kdiss value has been reported for C=C[C@]1(C)C[C@@H](OC(=O)CSc2nc(N)n(C(=O)c3ccc(OC)cc3)n2)[C@]2(C)[C@H](C)CC[C@]3(CCC(=O)[C@H]32)[C@@H](C)[C@@H]1O ? 2.22 10^-7M

Look up Kdiss: C=C[C@]1(C)C[C@@H](OC(=O)CSc2nc(N)n(C(=O)c3cccc(C)c3)n2)[C@]2(C)[C@H](C)CC[C@]3(CCC(=O)[C@H]32)[C@@H](C)[C@@H]1O 8.79 10^-6M

Returns the measured Kdiss for the input compound. Input: C=C[C@]1(C)C[C@@H](OC(=O)CSc2nc(N)n(C(=O)c3cccc(F)c3)n2)[C@]2(C)[C@H](C)CC[C@]3(CCC(=O)[C@H]32)[C@@H](C)[C@@H]1O 2.21 10^-5M

----------
Task for the reader: assign each of the following compounds its reported MIC.
System: Staphylococcus aureus
Test Method Notes: Antibacterial activity against Staphylococcus aureus 144 assessed as inhibition of visible growth incubated for 24 hrs by CLSI protocol based broth microdilution method
Assay type: functional
A number alone suffices; assume µg/mL.

Fill in: MIC of C=C[C@]1(C)C[C@@H](OC(=O)CSc2nc(N)n(C(=O)c3ccc(F)cc3Cl)n2)[C@]2(C)[C@H](C)CC[C@]3(CCC(=O)[C@H]32)[C@@H](C)[C@@H]1O is ___ 1

For the compound C=C[C@]1(C)C[C@@H](OC(=O)CSc2nc(N)n(C(=O)c3cccc(F)c3)n2)[C@]2(C)[C@H](C)CC[C@]3(CCC(=O)[C@H]32)[C@@H](C)[C@@H]1O , what MIC is on record? 1

Query (compound): C=C[C@]1(C)C[C@@H](OC(=O)CSc2nc(N)n(C(=O)c3ccc(C)cc3)n2)[C@]2(C)[C@H](C)CC[C@]3(CCC(=O)[C@H]32)[C@@H](C)[C@@H]1O ; field requested: MIC 0.125

For the compound shown here, C=C[C@]1(C)C[C@@H](OC(=O)CSc2nc(N)n(C(=O)c3ccccc3)n2)[C@]2(C)[C@H](C)CC[C@]3(CCC(=O)[C@H]32)[C@@H](C)[C@@H]1O , give the reported MIC. 2

Look up MIC for this compound: C=C[C@]1(C)C[C@@H](OC(=O)CSc2nc(N)n(C(=O)c3ccc(OC(F)(F)F)cc3)n2)[C@]2(C)[C@H](C)CC[C@]3(CCC(=O)[C@H]32)[C@@H](C)[C@@H]1O 2

Find the recorded MIC belonging to C=C[C@]1(C)C[C@@H](OC(=O)CSc2nc(N)n[nH]2)[C@]2(C)[C@H](C)CC[C@]3(CCC(=O)[C@H]32)[C@@H](C)[C@@H]1O and report it. 2

Entry C=C[C@]1(C)C[C@@H](OC(=O)CSc2nc(N)n(C(=O)c3cc(Cl)cc(Cl)c3)n2)[C@]2(C)[C@H](C)CC[C@]3(CCC(=O)[C@H]32)[C@@H](C)[C@@H]1O has what MIC? 1

Which measured MIC value corresponds to C=C[C@]1(C)C[C@@H](OC(=O)CSc2nc(N)n(C(=O)c3ccc(F)cc3)n2)[C@]2(C)[C@H](C)CC[C@]3(CCC(=O)[C@H]32)[C@@H](C)[C@@H]1O ? 1

MIC for C=C[C@]1(C)C[C@@H](OC(=O)CSc2nc(N)n(C(=O)c3c(F)cccc3Cl)n2)[C@]2(C)[C@H](C)CC[C@]3(CCC(=O)[C@H]32)[C@@H](C)[C@@H]1O ? 2

# lookup: MIC of C=C[C@]1(C)C[C@@H](OC(=O)CSCCN(CC)CC)[C@]2(C)[C@H](C)CC[C@]3(CCC(=O)[C@H]32)[C@@H](C)[C@@H]1O 1

Recorded MIC for C=C[C@]1(C)C[C@@H](OC(=O)CSc2nc(N)n(C(=O)c3ccccc3Cl)n2)[C@]2(C)[C@H](C)CC[C@]3(CCC(=O)[C@H]32)[C@@H](C)[C@@H]1O , please? 1

----------
Field: Kdiss. Provide a value for each of the molecules that follow.
Target Or Test System: Bacterial 70S ribosome (Bacteria) (UniProt P0A7V0+P60723+P0AG67+P0A7R5+P0A7R9+P0A7S3+P0A7S9+P0AG59+P0ADZ4+P0A7T3+P0AG63+P0A7T7+P0A7U3+P0A7U7+P68679+P0A7V3+P0A7V8+P0A7W1+P02358+P02359+P0A7W7+P0A7X3+P0A7J3+P0A7J7+P0AA10+P0ADY3+P02413+P0ADY7+P0AG44+P0C018+P0A7K6+P0A7L0+P0A7L3+P0AG48+P61175+P0ADZ0+P60624+P68919+P0A7L8+P0A7M2+P0A7M6+P60422+P0AG51+P0A7N1+P0A7M9+P0A7N4+P0A7N9+P0A7P5+P0A7Q1+Q2EEQ2+P0A7Q6+P60438+P62399+P0AG55+P0A7K2)
Test Method Notes: Binding affinity to Staphylococcus aureus ATCC 43300 50S ribosome assessed as dissociation rate constant by SPR analysis
Format: subcellular

Which Kdiss value is on record for C=C[C@]1(C)C[C@@H](OC(=O)CSc2nc(N)n(C(=O)c3ccccc3)n2)[C@]2(C)[C@H](C)CC[C@]3(CCC(=O)[C@H]32)[C@@H](C)[C@@H]1O ? 2.7 10^-4M

Tell me the measured Kdiss of C=C[C@]1(C)C[C@@H](OC(=O)CSc2nc(N)n(C(=O)c3ccc(C)cc3)n2)[C@]2(C)[C@H](C)CC[C@]3(CCC(=O)[C@H]32)[C@@H](C)[C@@H]1O , please. 2.2 10^-4M

So what's the measured Kdiss for this one? C=C[C@]1(C)C[C@@H](OC(=O)CSc2nc(N)n(C(=O)c3cccc(Cl)c3)n2)[C@]2(C)[C@H](C)CC[C@]3(CCC(=O)[C@H]32)[C@@H](C)[C@@H]1O 4.94 10^-7M

----------
Tested on: Staphylococcus aureus
Test Method Notes: Antibacterial activity against Staphylococcus aureus 144 assessed as inhibition of visible growth incubated for 24 hrs by CLSI protocol based broth microdilution method
Type: functional
Experimental Endpoint: MIC (µg/mL)
Give a bare numeral; the unit µg/mL is implied.

Entry under review: C=C[C@]1(C)C[C@@H](OC(=O)CSc2nc(N)n(C(=O)c3ccccc3C(F)(F)F)n2)[C@]2(C)[C@H](C)CC[C@]3(CCC(=O)[C@H]32)[C@@H](C)[C@@H]1O . Reported MIC? 4

Please look up its MIC: C=C[C@]1(C)C[C@@H](OC(=O)CSc2nc(N)n(C(=O)c3ccc(OC)cc3)n2)[C@]2(C)[C@H](C)CC[C@]3(CCC(=O)[C@H]32)[C@@H](C)[C@@H]1O 0.5

Bench note: what MIC did C=C[C@]1(C)C[C@@H](OC(=O)CSc2nc(N)n(C(=O)c3ccccc3C)n2)[C@]2(C)[C@H](C)CC[C@]3(CCC(=O)[C@H]32)[C@@H](C)[C@@H]1O show? 1

What measured MIC goes with C=C[C@]1(C)C[C@@H](OC(=O)CSc2nc(N)n(C(=O)c3cccc(Cl)c3)n2)[C@]2(C)[C@H](C)CC[C@]3(CCC(=O)[C@H]32)[C@@H](C)[C@@H]1O ? 0.5

Look at this compound and give its reported MIC. C=C[C@]1(C)C[C@@H](OC(=O)CSc2nc(N)n(C(=O)c3c(F)c(F)c(F)c(F)c3F)n2)[C@]2(C)[C@H](C)CC[C@]3(CCC(=O)[C@H]32)[C@@H](C)[C@@H]1O 2

Need MIC, item C=C[C@]1(C)C[C@@H](OC(=O)CSc2nc(N)n(C(=O)c3ccc(Cl)cc3)n2)[C@]2(C)[C@H](C)CC[C@]3(CCC(=O)[C@H]32)[C@@H](C)[C@@H]1O 1

Item under review: C=C[C@]1(C)C[C@@H](OC(=O)CSc2nc(N)n(C(=O)c3cccc(C)c3)n2)[C@]2(C)[C@H](C)CC[C@]3(CCC(=O)[C@H]32)[C@@H](C)[C@@H]1O . Reported MIC? 0.5

Any idea what its MIC is? The compound is C=C[C@]1(C)C[C@@H](OC(=O)CSc2nc(N)n(C(=O)c3ccc(C(F)(F)F)cc3)n2)[C@]2(C)[C@H](C)CC[C@]3(CCC(=O)[C@H]32)[C@@H](C)[C@@H]1O 1

I am curious: what MIC value has been reported for C=C[C@]1(C)C[C@@H](OC(=O)CSc2nc(N)n(C(=O)c3ccccc3OC)n2)[C@]2(C)[C@H](C)CC[C@]3(CCC(=O)[C@H]32)[C@@H](C)[C@@H]1O ? 1

Which MIC is reported for this compound? C=C[C@]1(C)C[C@@H](OC(=O)CSc2nc(N)n(C(=O)c3cccc(OC)c3)n2)[C@]2(C)[C@H](C)CC[C@]3(CCC(=O)[C@H]32)[C@@H](C)[C@@H]1O 0.5

Recorded MIC for C=C[C@]1(C)C[C@@H](OC(=O)CSc2nc(N)n(C(=O)c3ccccc3F)n2)[C@]2(C)[C@H](C)CC[C@]3(CCC(=O)[C@H]32)[C@@H](C)[C@@H]1O , please? 4

Sourced from ChEMBL document CHEMBL4814060
